PROTOCOL_NOTES: Contact angles of various liquids on flat solids
Format: physicochemical
TEST_CONTEXT: flat solid Epoxy
Entries and their measured Measured contact angle θrec follow.

# count of solved cases: 3
QUERY_SMILES	Measured contact angle θrec
O	67.0 ± 4.5
FC(F)(F)C(F)(F)C(F)(F)C(F)(F)C(F)(F)N(C(F)(F)C(F)(F)C(F)(F)C(F)(F)C(F)(F)F)C(F)(F)C(F)(F)C(F)(F)C(F)(F)C(F)(F)F	26.7 ± 1.4
CCCCCCCCCCCCCCCC	25.7 ± 0.9

Problem: Record request: Measured contact angle θrec value, item CCCCCCCCCCCCC
Result: 25.4 ± 0.7

Problem: Record request: Measured contact angle θrec value, item CCCCC
Result: ~0.0

Problem: Record request: Measured contact angle θrec value, item CCCCCCCC
Result: 6.1 ± 0.2

Problem: Record request: Measured contact angle θrec value, item CCCCCC
Result: ~0.0

Problem: Record request: Measured contact angle θrec value, item CCCCCCCCCC
Result: 13.7 ± 0.9

###

PROTOCOL_NOTES: Surface tension of polar and non-polar liquids
Assay type: physicochemical
REPORTED_ENDPOINT: Surface Tension (mN/m)
A number alone suffices; assume mN/m.

# count of solved cases: 4
QUERY_SMILES	ASSAY_VALUE
CCCCCCCCCC	23.6
CCCCCCCCCCCCCCCC	27.2
CCCCCCCC	21.4
OCCO	48.1

Problem: Record request: Surface Tension value, item FC(F)(F)C(F)(F)C(F)(F)C(F)(F)C(F)(F)N(C(F)(F)C(F)(F)C(F)(F)C(F)(F)C(F)(F)F)C(F)(F)C(F)(F)C(F)(F)C(F)(F)C(F)(F)F
Result: 17.1

Problem: Record request: Surface Tension value, item CCCCCCC
Result: 19.9

Problem: Record request: Surface Tension value, item O
Result: 72.4

###

PROTOCOL_NOTES: Contact angles of various liquids on flat solids
Format: physicochemical
Set-up: unit not given here
TEST_CONTEXT: flat solid S. (silanized epoxy)
REPORTED_ENDPOINT: Measured contact angle θstatic
// no unit string in output, number only

# count of solved cases: 4
QUERY_SMILES	Measured contact angle θstatic
CCCCCCCCCC	60.0
CCCCCC	40.1
CCCCCCCCCCCCC	63.5
CCCCC	30.8

Problem: Record request: Measured contact angle θstatic value, item FC(F)(F)C(F)(F)C(F)(F)C(F)(F)C(F)(F)N(C(F)(F)C(F)(F)C(F)(F)C(F)(F)C(F)(F)F)C(F)(F)C(F)(F)C(F)(F)C(F)(F)C(F)(F)F
Result: 14.1

Problem: Record request: Measured contact angle θstatic value, item CCCCCCCC
Result: 50.7

Problem: Record request: Measured contact angle θstatic value, item CCCCCCCCCCCCCCCC
Result: 70.5

Problem: Record request: Measured contact angle θstatic value, item O
Result: 113.1

###

PROTOCOL_NOTES: Contact angles of various liquids on flat solids
Type: physicochemical
Parameters: unit not given here
TEST_CONTEXT: flat solid S. (silanized epoxy)
Measured contact angle θadv below 50 gives Not met; Measured contact angle θadv at or above it gives Met.

Observe how each entry below is paired with its result.
QUERY_SMILES	CLASS_LABEL
CCCCCCCCCCCCC	Met
FC(F)(F)C(F)(F)C(F)(F)C(F)(F)C(F)(F)N(C(F)(F)C(F)(F)C(F)(F)C(F)(F)C(F)(F)F)C(F)(F)C(F)(F)C(F)(F)C(F)(F)C(F)(F)F	Not met
CCCCCCCCCCCCCCCC	Met
CCCCCCCCCC	Met
O	Met

Problem: Check the entry CCCCC : does Measured contact angle θadv equal or exceed 50?
Result: Not met

Problem: Check the entry CCCCCC : does Measured contact angle θadv equal or exceed 50?
Result: Met

Problem: Check the entry CCCCCCCC : does Measured contact angle θadv equal or exceed 50?
Result: Met

###

PROTOCOL_NOTES: Stable lubricating film for solid-Liquid A-Liquid B combinations, theory versus experiment
Type: physicochemical
Design: key: “Y” indicates that Liquid B forms a stable lubricating film, and is not displaced by Object A; “N” indicates that Liquid B is displaced by Object A
TEST_CONTEXT: Solid Silicon, Liquid B H2O, R 1; label = Liquid A
REPORTED_ENDPOINT: Stable Film? Exp.

# count of solved cases: 4
QUERY_SMILES	Stable Film? Exp.
CCCCCCCC	N
CCCCCCCCCCCCCCCC	N
CCCCC	N
CCCCCC	N

Moving on to the next compound.
Problem: Record request: Stable Film? Exp. value, item CCCCCCCCCC
Result: N

###

Entries and their measured Measured contact angle θadv follow.
PROTOCOL_NOTES: Contact angles of various liquids on flat solids
Assay type: physicochemical
Design: unit not given here
TEST_CONTEXT: flat solid Silicon
// no unit string in output, number only

Problem: Record request: Measured contact angle θadv value, item CCCCCCCCCC
Result: 7.9

Problem: Record request: Measured contact angle θadv value, item CCCCCCCCCCCCCCCC
Result: 17.3

Problem: Record request: Measured contact angle θadv value, item O
Result: 14.4

###

Entries and their measured Measured contact angle θadv follow.
PROTOCOL_NOTES: Contact angles of various liquids on flat solids
Type: physicochemical
Set-up: unit not given here
TEST_CONTEXT: flat solid Epoxy
// no unit string in output, number only

# count of solved cases: 5
COMPOUND	Measured contact angle θadv
CCCCCCCC [Octane]	9.7
CCCCCCCCCCCCCCCC [Hexadecane]	32.8
CCCCCCCCCC [Decane]	15.0
O [Water]	100.3
CCCCCCCCCCCCC [Tridecane]	28.3

Moving on to the next compound.
Problem: Record request: Measured contact angle θadv value, item FC(F)(F)C(F)(F)C(F)(F)C(F)(F)C(F)(F)N(C(F)(F)C(F)(F)C(F)(F)C(F)(F)C(F)(F)F)C(F)(F)C(F)(F)C(F)(F)C(F)(F)C(F)(F)F [FC-70, perfluoro-tripentylamine]
Result: 35.1

###

PROTOCOL_NOTES: Stable lubricating film for solid-Liquid A-Liquid B combinations, theory versus experiment
Assay type: physicochemical
TEST_CONTEXT: Solid Epoxy, Liquid B FC-70, R 1; label = Liquid A

MOLECULE	Stable Film? Theory
O [Water]	Y/N
CCCCCCCCCCCCC [Tridecane]	Y/N
CCCCCCCCCCCCCCCC [Hexadecane]	Y/N
CCCCCCCCCC [Decane]	N

###

Entries and their measured Measured contact angle θrec follow.
PROTOCOL_NOTES: Contact angles of various liquids on flat solids
Format: physicochemical
TEST_CONTEXT: flat solid S. (silanized epoxy)
// no unit string in output, number only

QUERY_SMILES	Measured contact angle θrec
O	90.8
CCCCCCCCCC	38.5
CCCCC	17.0
CCCCCC	22.8
FC(F)(F)C(F)(F)C(F)(F)C(F)(F)C(F)(F)N(C(F)(F)C(F)(F)C(F)(F)C(F)(F)C(F)(F)F)C(F)(F)C(F)(F)C(F)(F)C(F)(F)C(F)(F)F	0.0
CCCCCCCCCCCCCCCC	50.0

Problem: Record request: Measured contact angle θrec value, item CCCCCCCC
Result: 23.8

Problem: Record request: Measured contact angle θrec value, item CCCCCCCCCCCCC
Result: 48.1

###

PROTOCOL_NOTES: Contact angles of various liquids on flat solids
Type: physicochemical
Parameters: unit not given here
TEST_CONTEXT: flat solid Epoxy
REPORTED_ENDPOINT: Measured contact angle θstatic

QUERY_SMILES	Measured contact angle θstatic
CCCCC	~0.0
CCCCCC	~0.0

Moving on to the next molecule.
Problem: Record request: Measured contact angle θstatic value, item CCCCCCCCCCCCCCCC
Result: 30.6 ± 0.4

###

PROTOCOL_NOTES: Surface tension of polar and non-polar liquids
Format: physicochemical
REPORTED_ENDPOINT: Surface Tension
The reply should consist of the numeric value with the unit placed after it.

# count of solved cases: 6
QUERY_SMILES	Surface Tension
OCC(O)CO	60.3 ± 1.1 mN/m
CCCCC	17.2 ± 0.5 mN/m
CCCCCC	18.6 ± 0.5 mN/m
CCCCCCCCCCC	24.6 ± 0.2 mN/m
CCCCCCCCCCCCC	25.9 ± 0.1 mN/m
CCCCCCCCCCCC	25.3 ± 0.1 mN/m

Moving on to the next molecule.
Problem: Record request: Surface Tension value, item CCCCCCCCC
Result: 22.6 ± 0.2 mN/m

###

PROTOCOL_NOTES: Contact angles of various liquids on flat solids
Format: physicochemical
Set-up: unit not given here
TEST_CONTEXT: flat solid Silicon
REPORTED_ENDPOINT: Measured contact angle θadv

# count of solved cases: 2
QUERY_SMILES	Measured contact angle θadv
CCCCC	<5.0
CCCCCCCC	<5.0

Moving on to the next compound.
Problem: Record request: Measured contact angle θadv value, item CCCCCC
Result: <5.0
